Target: human A3AR (Homo sapiens)
Construct: expressed in transfected cells
Sequence (P0DMS8 whole entry): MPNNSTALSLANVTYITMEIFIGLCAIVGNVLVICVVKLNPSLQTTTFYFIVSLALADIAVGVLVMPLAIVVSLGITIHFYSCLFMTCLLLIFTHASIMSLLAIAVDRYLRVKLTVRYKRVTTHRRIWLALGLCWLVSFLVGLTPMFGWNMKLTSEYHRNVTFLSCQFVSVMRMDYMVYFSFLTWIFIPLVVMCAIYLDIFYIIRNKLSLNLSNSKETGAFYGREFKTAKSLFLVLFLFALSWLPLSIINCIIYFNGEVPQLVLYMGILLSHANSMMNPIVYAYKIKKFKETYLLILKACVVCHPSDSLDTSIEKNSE
Test: LOPAC library primary screen: single concentration (10 μM) inhibition of 25 nM CA200645 binding, PHERAstar FS
Structures can show the parent of a compound that is named as a salt.
assay_endpoint: % 25 nM CA200645 binding (%)

[
  {
    "molecule": "CC[C@@H]1Cc2cc(O)ccc2C2=C1c1ccc(O)cc1C[C@H]2CC",
    "system_under_test": "human A3AR (Homo sapiens)",
    "display_unit": "%",
    "numeric_value": 85.9
  },
  {
    "molecule": "CN(C)CCCC1(c2ccc(F)cc2)OCc2cc(C#N)ccc21 (stereo not drawn) [Citalopram hydrobromide]",
    "system_under_test": "human A3AR (Homo sapiens)",
    "display_unit": "%",
    "numeric_value": 97.2
  },
  {
    "molecule": "NCCc1c[nH]cn1 [Histamine dihydrochloride]",
    "system_under_test": "human A3AR (Homo sapiens)",
    "display_unit": "%",
    "numeric_value": 102.0
  },
  {
    "molecule": "CC12NC(Cc3ccccc31)c1ccccc12.O=C(O)/C=C\\C(=O)O (single isomer, unassigned; (+)) [(+)-MK-801 hydrogen maleate]",
    "system_under_test": "human A3AR (Homo sapiens)",
    "display_unit": "%",
    "numeric_value": 104.8
  },
  {
    "molecule": "CC(C)(Oc1ccc(C2CC2(Cl)Cl)cc1)C(=O)O (stereo not drawn) [Ciprofibrate]",
    "system_under_test": "human A3AR (Homo sapiens)",
    "display_unit": "%",
    "numeric_value": 98.7
  },
  {
    "molecule": "CC(C)NCC(O)COc1ccc(CCOCC2CC2)cc1 (stereo not drawn) [Betaxolol hydrochloride]",
    "system_under_test": "human A3AR (Homo sapiens)",
    "display_unit": "%",
    "numeric_value": 98.4
  },
  {
    "molecule": "O=C(/C=C/c1ccc(O)c(O)c1)OCCc1ccccc1",
    "system_under_test": "human A3AR (Homo sapiens)",
    "display_unit": "%",
    "numeric_value": 79.3
  },
  {
    "molecule": "CN1[C@@H](CC(=O)c2ccccc2)CCC[C@H]1C[C@H](O)c1ccccc1.Cl [alpha-Lobeline hydrochloride]",
    "system_under_test": "human A3AR (Homo sapiens)",
    "display_unit": "%",
    "numeric_value": 90.3
  },
  {
    "molecule": "CCCCCCCCCC(=O)NC(CN1CCOCC1)[C@H](O)c1ccccc1.Cl (mixture of isomers)",
    "system_under_test": "human A3AR (Homo sapiens)",
    "display_unit": "%",
    "numeric_value": 98.6
  }
]
